All values here come from the supplement of paper PMC10567573.

B1: SOAT2 (parent)
chain: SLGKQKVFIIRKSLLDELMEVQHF

variants of: B1; test: protein stability index of a GFP-peptide fusion (GPS, HEK-293T) (PSI 1-6); higher = more stable; conditions: c terminus: a fixed tail appended;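 note: lentivirally expressed fusions sorted by FACS into six bins by GFP to DsRed ratio, PSI derived from sequencing read proportions per bin multiplied by bin number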
Classification scheme (protein stability index): label 0 = under 2, label 1 = from 2 up to 3, label 2 = 3 and over

{"Seq": "SLGKQKVFIIRKSLLDELMEVQHI [F24I]", "Cat": "label 1"}

Then there is this variant:
Query: Any idea which band SLGKQKVFIIRKSGLDELMEVQHF [L14G] is in?
Result: label 1
